Target: Activin receptor type-1B (Homo sapiens, UniProt P36896)
Sequence (P36896 whole entry): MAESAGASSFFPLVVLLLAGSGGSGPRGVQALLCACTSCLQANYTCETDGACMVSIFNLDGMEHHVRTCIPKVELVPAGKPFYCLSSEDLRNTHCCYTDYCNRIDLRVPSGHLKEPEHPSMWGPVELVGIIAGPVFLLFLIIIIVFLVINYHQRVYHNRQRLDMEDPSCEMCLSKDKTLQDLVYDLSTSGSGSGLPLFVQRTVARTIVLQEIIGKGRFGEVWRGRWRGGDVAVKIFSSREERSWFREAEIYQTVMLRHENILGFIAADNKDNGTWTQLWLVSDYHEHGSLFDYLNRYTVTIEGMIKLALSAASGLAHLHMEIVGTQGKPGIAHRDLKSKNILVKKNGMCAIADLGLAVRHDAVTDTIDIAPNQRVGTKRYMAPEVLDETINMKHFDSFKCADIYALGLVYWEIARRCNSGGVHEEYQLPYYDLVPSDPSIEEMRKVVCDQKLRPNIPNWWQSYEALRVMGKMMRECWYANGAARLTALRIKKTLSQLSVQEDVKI
Study the reported IC50 values for Activin receptor type-1B (Homo sapiens, UniProt P36896) given below; they originate from different publications.
READOUT_TYPE: IC50 (nM)

INSERT INTO measurements (test_smiles, readout_type, qual, readout_value) VALUES
  ('CSc1ccccc1Nc1nc(N2CCN(C3CCNCC3)CC2)nc2c(NCC3CC3)ncnc12', 'IC50', '<', 10000),
  ('COc1cc(-c2cncc(-c3ccc(N4CCNCC4)cc3)c2C#N)cc(OC)c1OC', 'IC50', '=', 257),
  ('COc1cc(-c2cncc(-c3ccc(N4CCNCC4)cc3)c2F)cc(OC)c1OC', 'IC50', '=', 630),
  ('O=S1(=O)CC2(OCCO2)c2cc3nccc(Nc4ccc5scnc5c4)c3cc21', 'IC50', '=', 3740),
  ('N#CCNC(=O)c1ccc(-c2ccnc(Nc3ccc(N4CCOCC4)cc3)n2)cc1', 'IC50', '<', 1000),
  ('Cc1cccc(-n2nccc2-c2ccc3ncn(C)c(=O)c3c2)n1', 'IC50', '=', 59),
  ('COc1cc(-c2cncc(-c3ccc(C4CCN(C)CC4)cc3)c2C)cc(OC)c1OC', 'IC50', '>', 2000),
  ('COc1cc(-c2cncc(-c3ccc(N4CCNCC4)cc3)c2)cc(OC)c1OC', 'IC50', '=', 462),
  ('COc1cc(-c2cncc(-c3ccc(N4CCNCC4)cc3)c2Cl)cc(OC)c1OC', 'IC50', '=', 962),
  ('COc1cc(-c2cncc(-c3ccc(OC4CCNCC4)cc3)c2C)cc(OC)c1OC', 'IC50', '=', 1360);
